Each item that follows carries a reported IC50.
- target.or.system: C-Raf kinase (Homo sapiens)
- Sequence (P04049 whole entry): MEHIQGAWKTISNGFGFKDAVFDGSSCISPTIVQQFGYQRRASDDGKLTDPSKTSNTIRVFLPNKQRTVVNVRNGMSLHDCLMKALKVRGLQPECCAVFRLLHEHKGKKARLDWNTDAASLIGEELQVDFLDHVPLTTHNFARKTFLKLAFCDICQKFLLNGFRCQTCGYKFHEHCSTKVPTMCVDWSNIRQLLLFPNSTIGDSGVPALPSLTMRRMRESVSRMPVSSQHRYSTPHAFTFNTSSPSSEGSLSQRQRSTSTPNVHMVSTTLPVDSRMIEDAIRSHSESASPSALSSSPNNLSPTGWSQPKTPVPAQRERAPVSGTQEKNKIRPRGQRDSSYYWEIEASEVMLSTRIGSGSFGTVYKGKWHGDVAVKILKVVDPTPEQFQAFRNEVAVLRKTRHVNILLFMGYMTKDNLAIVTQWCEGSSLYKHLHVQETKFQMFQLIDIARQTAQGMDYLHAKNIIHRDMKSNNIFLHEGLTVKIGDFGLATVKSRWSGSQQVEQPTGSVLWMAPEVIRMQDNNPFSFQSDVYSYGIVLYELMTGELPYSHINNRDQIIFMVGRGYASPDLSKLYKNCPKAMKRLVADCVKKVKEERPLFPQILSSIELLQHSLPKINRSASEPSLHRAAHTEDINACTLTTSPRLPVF
- experiment.summary: C-Raf kinase assay ([33P] incorporation into MEK1(K97R))
- experimental.setup: class symbols; 8 μM ATP; read-out: IC50 against C-Raf kinase
reported.endpoint: IC50

# smiles.structure, assay.result
rows = [
    ("CCCS(=O)(=O)Nc1ccc(F)c(Nc2ncnc3ccc(-c4cccc(C#N)n4)cc23)c1F", "< 300 nM"),
    ("CCCS(=O)(=O)Nc1ccc(F)c(Nc2ncnc3ccc(-c4cccnc4F)cc23)c1Cl", "1000 to 10000 nM"),
    ("CCCS(=O)(=O)Nc1ccc(F)c(Nc2ncnc3ccc(-c4ccncc4)cc23)c1F", "< 300 nM"),
    ("CCCS(=O)(=O)Nc1ccc(F)c(Nc2ccnc3ccc(-c4ccnc(F)c4)cc23)c1F", "< 300 nM"),
    ("CCCS(=O)(=O)Nc1ccc(F)c(Nc2ncnc3ccc(-c4ccc(N5CCOCC5)nc4)cc23)c1F", "< 300 nM"),
    ("CCCS(=O)(=O)Nc1ccc(F)c(Nc2ccnc3ccc(-c4cccnc4F)cc23)c1F", "< 300 nM"),
]
